System: differentiated SH-SY5Y human neuronal cells
Assay: MTT assay: neuroprotection from Staurosporin (STSR) induced cytotoxicity
Type: cell-based
Conditions: 0.5 μM, 1.5 μM and 5 μM with STSR 75 nM, 72 hrs, FIG. 3
Readout Kind: neuroprotection against STSR-induced cytotoxicity

>>> test_result("CCCCCc1cc(O)c2c(c1)OC(C)(C)c1ccc(C)cc1-2")
"did not protect"
>>> test_result("C=C(C)c1ccc(C)cc1-c1c(O)cc(CCCCC)cc1O")
"did not protect"
>>> test_result("C=C(C)[C@@H]1CCC(C)=C[C@H]1c1c(O)cc(CCCCC)cc1O")
"did not protect"

* * *

System: differentiated SH-SY5Y human neuronal cells
Assay: MTT assay: cytotoxicity of the substance alone (primary screen, no added insult)
Format: cell-based
Conditions: 15 μM, pre-screen, FIG. 1
Readout Kind: Cell Death (%) vs Vehicle Control

>>> test_result("CCCCCc1cc(O)c2c(c1)OC(C)(C)[C@@H]1CCC(C)=C[C@@H]21 [Δ9-THC, Δ^9-tetrahydrocannabinol]")
"promote cell death"
>>> test_result("C=C(C)[C@@H]1CCC(C)=C[C@H]1c1c(O)cc(CCCCC)c(C(=O)O)c1O [CBDA, cannabidiolic acid]")
"promote cell death"
>>> test_result("C=C(C)c1ccc(C)cc1-c1c(O)cc(CCCCC)cc1O [CBND]")
"promote cell death"
